Recorded below: GI50, system Vascular endothelial growth factor receptor 2 (Homo sapiens) (UniProt P35968).
One number for each entry, in µM.

Take a look at these entries with their results.
>>> test_value("Cc1ccc(NC(=O)c2ccc(CNCCN(C)C)cc2)cc1Nc1nccc(-c2cccnc2)n1")
4.88
>>> test_value("Cc1ccc(NC(=O)c2ccc(CN(CCN(C)C)C(=O)C(C)C)cc2)cc1Nc1nccc(-c2cccnc2)n1")
8.64
>>> test_value("C=CC(=O)Nc1ccc(C(=O)Nc2ccc(C)c(Nc3nccc(-c4cccnc4)n3)c2)cc1")
2.03
>>> test_value("C=CS(=O)(=O)NCc1ccc(C(=O)Nc2ccc(C)c(Nc3nccc(-c4cccnc4)n3)c2)cc1")
1.56
>>> test_value("C=CC(=O)Nc1cccc(C(=O)Nc2ccc(C)c(Nc3nccc(-c4cccnc4)n3)c2)c1")
1.57
>>> test_value("C=CC(=O)N(CCN(CC)CC)Cc1ccc(C(=O)Nc2ccc(C)c(Nc3nccc(-c4cccnc4)n3)c2)cc1")
4.55
>>> test_value("Cc1ccc(NC(=O)c2ccc(CN(CCN(C)C)C(=O)C(C)(C)C)cc2)cc1Nc1nccc(-c2cccnc2)n1")
5.48
>>> test_value("CCC(=O)Nc1ccc(C(=O)Nc2ccc(C)c(Nc3nccc(-c4cccnc4)n3)c2)cc1")
6.27
>>> test_value("CCCC(=O)N(CCN(C)C)Cc1ccc(C(=O)Nc2ccc(C)c(Nc3nccc(-c4cccnc4)n3)c2)cc1")
4.76
>>> test_value("Cc1ccc(NC(=O)c2ccc(NC(=O)c3cccnc3)cc2)cc1Nc1nccc(-c2cccnc2)n1")
0.882

For every listed record, write down its GI50.
1. C=CC(=O)N(CCC(C)C)Cc1ccc(C(=O)Nc2ccc(C)c(Nc3nccc(-c4cccnc4)n3)c2)cc1
2. Cc1ccc(NC(=O)c2ccc(CNC(=O)c3cccnc3)cc2)cc1Nc1nccc(-c2cccnc2)n1

1. 5.74
2. 0.348

For every listed record, write down its GI50.
1. C=CC(=O)Nc1cc(C(=O)Nc2ccc(C)c(Nc3nccc(-c4cccnc4)n3)c2)cc(C(F)(F)F)c1
2. CCC(=O)NCc1cccc(C(=O)Nc2ccc(C)c(Nc3nccc(-c4cccnc4)n3)c2)c1
3. Cc1ccc(NC(=O)c2ccc(CNC(=O)c3cccnc3)c(C(F)(F)F)c2)cc1Nc1nccc(-c2cccnc2)n1
4. C/C=C/C(=O)N(CCN(C)C)Cc1ccc(C(=O)Nc2ccc(C)c(Nc3nccc(-c4cccnc4)n3)c2)cc1

[3.34, 3.22, 3.41, 8.54]

Data origin: ChEMBL document CHEMBL4229344
